system: HCT-116 MTAP wild-type cells; experiment: Inhibition of proliferation of HCT-116 MTAP wild-type cells (Cell-Titer Glo); assay type: cell-based; conditions: Homo sapiens, HCT-116, 192 h, 8 days
IC50 values, listed per item

- COMPOUND: "C[C@H]1OC[C@@H](N(C)C(=O)c2ccc3nc(N)c4cncn4c3c2)c2cc(F)ccc21 (single isomer, unassigned)"
  INEQUALITY_SIGN: "="
  IC50 / nM: 3580
- COMPOUND: "C[C@H]1OC[C@@H](N(C)C(=O)c2cc3c(cn2)nc(N)c2cncn23)c2ccc(C(F)(F)F)nc21"
  INEQUALITY_SIGN: "="
  IC50 / nM: 2230
- COMPOUND: "CN(C(=O)c1ccc2nc(N)c3c(CO)ncn3c2c1)[C@@H]1COc2cc(C(F)(F)F)ccc21"
  INEQUALITY_SIGN: ">"
  IC50 / nM: 10000
- COMPOUND: "[2H]C([2H])([2H])N(C(=O)c1ccc2nc(N)c3cncn3c2c1)[C@@H]1COc2cc(C(F)(F)F)ccc21"
  INEQUALITY_SIGN: "="
  IC50 / nM: 1080
- COMPOUND: "CN(C(=O)c1ccc2nc(N)c3cncn3c2n1)[C@@H]1COc2cc(C(F)(F)F)ccc21"
  INEQUALITY_SIGN: ">"
  IC50 / nM: 10000
- COMPOUND: "CN(C(=O)c1ccc2nc(N)c3cncn3c2c1)[C@@H]1CCOc2cc(C(F)(F)F)ccc21"
  INEQUALITY_SIGN: ">"
  IC50 / nM: 10000
- COMPOUND: "CN(C(=O)c1cc2c(cc1F)nc(N)c1cncn12)[C@H]1COC(C)(C)c2cc(C(F)(F)F)ccc21 (single isomer, unassigned)"
  INEQUALITY_SIGN: "="
  IC50 / nM: 5890

###

system: Aspc-1; assay: Mini cell panel: inhibition of proliferation of Aspc-1 cells; assay type: cell-based; conditions: Homo sapiens, ASPC1, MTAP Wild type
pIC50: −log10 of the molar value.
pIC50 values, listed per item
MEASUREMENT_NAME: pIC50

- COMPOUND: "CN(C(=O)c1cc2c(cn1)nc(N)c1cncn12)[C@@H]1COc2cc(C(F)(F)F)ccc21"
  TEST_TARGET: "Aspc-1"
  INEQUALITY_SIGN: "="
  RECORDED_RESULT: 5.18
- COMPOUND: "CC(=O)O[C@H]1C(=O)[C@@]2(C)[C@H]([C@H](OC(=O)c3ccccc3)[C@]3(O)C[C@H](OC(=O)[C@H](O)[C@@H](NC(=O)c4ccccc4)c4ccccc4)C(C)=C1C3(C)C)[C@]1(OC(C)=O)CO[C@@H]1C[C@@H]2O [Paclitaxel, reference compound]"
  TEST_TARGET: "Aspc-1"
  INEQUALITY_SIGN: "="
  RECORDED_RESULT: 8.47
- COMPOUND: "CN(C(=O)c1ccc2nc(N)c3cncn3c2c1)[C@@H]1COc2cc(C(F)(F)F)ccc21"
  TEST_TARGET: "Aspc-1"
  INEQUALITY_SIGN: "<"
  RECORDED_RESULT: 5.00

###

Tested on: NCI-H647
Assay: Mini cell panel: inhibition of proliferation of NCI-H647 cells
Assay type: cell-based
Conditions: Homo sapiens, NCI-H647, MTAP (-/-)
Text: Test 9: Mini Cell Panel: Assay for Inhibitory Activity of Compounds against Proliferation of 20 Tumor Cell Lines Materials and Cells: Fifteen MTAP(-/-) cell lines and five MTAP wild-type cell lines were purchased from ATCC (USA). Cell culture media, fetal bovine serum (FBS), and penicillin-streptomycin were purchased from Thermo Fisher Scientific (USA). 384-well plates were purchased from PerkinElmer (USA). The CellTiter-Glo assay kit was purchased from Promega (USA). […]
pIC50: −log10 of the molar value.
MEASUREMENT_NAME: pIC50

- MOLECULE: "CC(=O)O[C@H]1C(=O)[C@@]2(C)[C@H]([C@H](OC(=O)c3ccccc3)[C@]3(O)C[C@H](OC(=O)[C@H](O)[C@@H](NC(=O)c4ccccc4)c4ccccc4)C(C)=C1C3(C)C)[C@]1(OC(C)=O)CO[C@@H]1C[C@@H]2O [Paclitaxel, reference compound]"
  MEASUREMENT_NAME: "pIC50"
  RECORDED_RESULT: 8.85
- MOLECULE: "CN(C(=O)c1cc2c(cn1)nc(N)c1cncn12)[C@@H]1COc2cc(C(F)(F)F)ccc21 [Example 4]"
  MEASUREMENT_NAME: "pIC50"
  RECORDED_RESULT: 7.80
- MOLECULE: "CN(C(=O)c1ccc2nc(N)c3cncn3c2c1)[C@@H]1COc2cc(C(F)(F)F)ccc21 [Example 107]"
  MEASUREMENT_NAME: "pIC50"
  RECORDED_RESULT: 7.52
